Overview of recorded log10(IC50) for various compounds
target_system: 5-HT1A receptor (Homo sapiens, UniProt P08908)
Sequence (P08908 1-422): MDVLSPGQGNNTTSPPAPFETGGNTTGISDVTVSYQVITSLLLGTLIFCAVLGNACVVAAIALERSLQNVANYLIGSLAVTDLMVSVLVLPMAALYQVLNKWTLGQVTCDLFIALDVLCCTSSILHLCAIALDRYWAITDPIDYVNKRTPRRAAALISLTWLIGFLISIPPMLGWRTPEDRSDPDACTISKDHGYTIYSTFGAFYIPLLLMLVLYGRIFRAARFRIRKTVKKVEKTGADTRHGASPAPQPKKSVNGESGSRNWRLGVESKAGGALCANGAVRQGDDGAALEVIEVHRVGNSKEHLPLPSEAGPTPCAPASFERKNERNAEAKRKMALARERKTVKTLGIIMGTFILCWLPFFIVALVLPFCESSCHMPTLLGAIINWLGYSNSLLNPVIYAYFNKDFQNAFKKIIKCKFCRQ
assay_procedure: cAMP accumulation assay, 5-HT1A function
Assay type: cell-based
condition_notes: cells marked IC50 (antagonist); read-out: 5-HT1A Function cAMP IC50
value_kind: log10(IC50) (log10 of the value in nM)

compound	readout_value
NC(=O)c1ccc(F)c2c1C[C@H](N(CCCCc1c[nH]c3ccc(F)cc13)C1CCC1)CO2 [Compound 83b]	3.76
NC(=O)c1ccc(F)c2c1CC(N(CCCc1c[nH]c3c(F)cc(F)cc13)C1CCC1)CO2 (single isomer, unassigned; (+)) [Compound 9b]	2.29
CCCN(CCCCc1c[nH]c2ccc(F)cc12)C1COc2c(F)ccc(C(N)=O)c2C1 (stereo not drawn) [Compound 81]	2.10
CC(C)NC(=O)c1ccc(F)c2c1CC(N(CCCc1c[nH]c3ccc(F)cc13)C1CCC1)CO2 (stereo not drawn) [Compound 63]	2.65
NC(=O)c1ccc(F)c2c1CC(N(CCCc1c[nH]c3ccc(Cl)cc13)C1CCC1)CO2 (stereo not drawn) [Compound 117]	2.43
N#Cc1ccc2[nH]cc(CCCN(C3CCC3)[C@@H]3COc4c(F)ccc(C(N)=O)c4C3)c2c1 [Compound 97a]	2.76
